Exercise: state measured pEC50 for each of the molecules provided.
assay: Inhibition of PrPSc formation in mouse SMB cells; assay type: functional, cell-based
pEC50 is a log-scale quantity: -log10 of the concentration expressed in molar.

Exercise: So what's the measured pEC50 for this one? N#Cc1c(N)nc(Sc2ccc(Cl)cc2)c(C#N)c1-c1cccc(O)c1
Key: 5.52

Exercise: So what's the measured pEC50 for this one? COC(=O)c1ccc(Sc2nc(N)c(C#N)c(-c3ccc(C(=O)OC)cc3)c2C#N)cc1
Key: 5.05

Exercise: So what's the measured pEC50 for this one? COC(=O)c1ccc(-c2c(C#N)c(N)nc(Sc3cccc(C(=O)OC)c3)c2C#N)cc1
Key: 5.10

Exercise: So what's the measured pEC50 for this one? N#Cc1c(N)nc(Sc2cccc(Cl)c2)c(C#N)c1-c1ccc2c(c1)OCCO2
Key: 5.60

Exercise: So what's the measured pEC50 for this one? N#Cc1c(N)nc(Sc2ccc(Cl)cc2)c(C#N)c1-c1cccs1
Key: 5.52

* * *

target: Major prion protein (Mus musculus) (UniProt P04925); experiment: Binding affinity to mouse prion protein by surface plasmon resonance assay
Sequence (P04925 whole entry): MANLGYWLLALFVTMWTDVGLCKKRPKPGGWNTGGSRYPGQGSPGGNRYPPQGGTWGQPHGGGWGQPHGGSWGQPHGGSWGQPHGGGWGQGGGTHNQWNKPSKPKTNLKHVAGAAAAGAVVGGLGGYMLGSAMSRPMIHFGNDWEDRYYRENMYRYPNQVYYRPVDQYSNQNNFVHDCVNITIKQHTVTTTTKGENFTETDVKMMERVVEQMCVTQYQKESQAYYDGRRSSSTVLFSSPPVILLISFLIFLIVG
Exercise: state measured RUmax for each of the compounds provided.
Please reply with the bare figure in % and do not write the unit itself.

Exercise: So what's the measured RUmax for this one? N#Cc1c(N)nc(Sc2ccc(Cl)cc2)c(C#N)c1-c1cccc(O)c1
Key: 8.9

Exercise: So what's the measured RUmax for this one? N#Cc1c(N)nc(Sc2ccccc2O)c(C#N)c1-c1ccc2c(c1)OCCO2
Key: 4.9

Exercise: So what's the measured RUmax for this one? N#Cc1c(N)nc(SCc2ccccc2)c(C#N)c1-c1cccs1
Key: 52.6

Exercise: So what's the measured RUmax for this one? N#Cc1c(N)nc(SCc2ccccc2)c(C#N)c1-c1cccc(O)c1
Key: 112

Exercise: So what's the measured RUmax for this one? COC(=O)c1cccc(Sc2nc(N)c(C#N)c(-c3ccco3)c2C#N)c1
Key: 2.2

Exercise: So what's the measured RUmax for this one? N#Cc1c(N)nc(Sc2ccccc2O)c(C#N)c1-c1cccs1
Key: 6.1

Exercise: So what's the measured RUmax for this one? N#Cc1c(N)nc(Sc2ccccc2O)c(C#N)c1-c1ccc(Cl)cc1
Key: 0

Exercise: So what's the measured RUmax for this one? N#Cc1c(N)nc(SCc2ccccc2)c(C#N)c1-c1ccc(Cl)cc1
Key: 0

Exercise: So what's the measured RUmax for this one? N#Cc1c(N)nc(Sc2ccc(O)cc2)c(C#N)c1-c1ccco1
Key: 19.6

* * *

target: Major prion protein (Mus musculus); assay: Binding affinity to mouse prion protein by surface plasmon resonance assay
Exercise: state measured RUmax for each of the compounds provided.
Please reply with the bare figure in % and do not write the unit itself.

Exercise: So what's the measured RUmax for this one? N#Cc1c(N)nc(Sc2cccc(Cl)c2)c(C#N)c1-c1ccc2c(c1)OCCO2
Key: 4.3

Exercise: So what's the measured RUmax for this one? COC(=O)c1ccc(Sc2nc(N)c(C#N)c(-c3ccc4c(c3)OCCO4)c2C#N)cc1
Key: 0

Exercise: So what's the measured RUmax for this one? COC(=O)c1ccc(-c2c(C#N)c(N)nc(Sc3ccccc3O)c2C#N)cc1
Key: 0

Exercise: So what's the measured RUmax for this one? N#Cc1c(N)nc(Sc2cccc(O)c2)c(C#N)c1-c1ccc2c(c1)OCO2
Key: 138

Exercise: So what's the measured RUmax for this one? N#Cc1c(N)nc(Sc2cccc(Cl)c2)c(C#N)c1-c1ccc2c(c1)OCO2
Key: 10.5

Exercise: So what's the measured RUmax for this one? N#Cc1c(N)nc(Sc2ccc(Cl)cc2)c(C#N)c1-c1ccco1
Key: 44.8

Exercise: So what's the measured RUmax for this one? N#Cc1c(N)nc(Sc2ccc(Cl)cc2)c(C#N)c1-c1cccs1
Key: 0

Exercise: So what's the measured RUmax for this one? COC(=O)c1cccc(Sc2nc(N)c(C#N)c(-c3ccc(Cl)cc3)c2C#N)c1
Key: 0

Exercise: So what's the measured RUmax for this one? N#Cc1c(N)nc(Sc2cccc(Cl)c2)c(C#N)c1-c1cccs1
Key: 72.2

Exercise: So what's the measured RUmax for this one? COC(=O)c1cccc(Sc2nc(N)c(C#N)c(-c3ccc4c(c3)OCO4)c2C#N)c1
Key: 70.4
